Test system: L1210 leukemia ip in BDF1 mice, survival T/C
Assay: NCI In Vivo Anticancer Drug Screen. Data for tumor model L1210 Leukemia (intraperitoneal) in B6D2F1 (BDF1) mice
Conditions: endpoint: mean survival time; dose: 400.0 mg/kg/injection; schedule: Q04DX003 (ip); vehicle: saline; higher = longer survival
Inconclusive results and toxic doses are left out. Peptide text beside a SMILES is read from it. * marks the point of attachment. Cbz = O=C(OCc1ccccc1)*; Boc = CC(C)(C)OC(=O)*

compound: ClC(c1ccccc1)(c1ccccc1)c1ccccc1
T/C: 88 % of control

compound: COP(=O)(CCBr)OC
T/C: 106 % of control

compound: COC(=O)CNC(=O)CNC(=O)OCc1ccccc1 (Cbz-Gly-Gly-OMe)
T/C: 107 % of control

compound: NC(=O)SCC(N)C(=O)O (stereo not drawn)
T/C: 116 % of control

compound: CCOC(=O)CCN1CCCCC1
T/C: 103 % of control

compound: CCCCCCCCCCCCCCCCNC(=S)NC1CCCCC1
T/C: 101 % of control

compound: CC(C)CC(NC(=O)OC(C)(C)C)C(=O)NC(Cc1c[nH]c2ccccc12)C(=O)N1CCCC1C(=O)NCC(N)=O (stereo not drawn) (Boc-LWPG-NH2; configuration not given here)
T/C: 97 % of control

compound: CC1=CC(C)(C(Cl)(Cl)Cl)C=C/C1=N\OC(C)C(=O)O (stereo not drawn)
T/C: 97 % of control

compound: CC1(C)SCC(C(=O)N2CCCC2C(=O)OC2CCCCC2)N1C=O (stereo not drawn)
T/C: 97 % of control

compound: CC(=O)NC1=C(S(=O)(=O)O)c2ccccc2C1
T/C: 102 % of control

compound: O=C1NCCN1
T/C: 95 % of control

compound: C/C(CC(c1ccccc1)N1CCc2ccccc2C1)=N/O (stereo not drawn)
T/C: 112 % of control

compound: NC(=O)N/N=C(/CCC(=O)O)C(=O)O
T/C: 91 % of control

compound: CCOC(=O)CC#N
T/C: 102 % of control

compound: COC(=O)C(C)(C)O
T/C: 104 % of control

compound: NCc1ccccc1F
T/C: 102 % of control

compound: COC(=O)/C=C/C=C/c1ccc(Br)cc1
T/C: 92 % of control

compound: N#Cc1ccc(OC(=O)c2ccc(N=C(N)N)cc2)cc1
T/C: 88 % of control

compound: O=C(OCCBr)c1ccccc1[N+](=O)[O-]
T/C: 100 % of control

compound: C[N+]1(CCC[N+]2(C)CC3CCCCC3C2)CCOCC1 (stereo not drawn)
T/C: 105 % of control

compound: CC1C(C)(C)P(=O)(NCCOP2(=O)C(C)(C)C(C)C2(C)C)C1(C)C (stereo not drawn)
T/C: 96 % of control

compound: CC(=O)Nc1cccc2cccnc12
T/C: 89 % of control

compound: COc1ccc(/C=C2\N=C(c3ccccc3)OC2=O)cc1OC
T/C: 96 % of control

* * *

System: L1210 leukemia ip in BDF1 mice, survival T/C
Assay: NCI In Vivo Anticancer Drug Screen. Data for tumor model L1210 Leukemia (intraperitoneal) in B6D2F1 (BDF1) mice
Conditions: endpoint: mean survival time; dose: 50.0 mg/kg/injection; schedule: Q01DX001 (ip); vehicle: carboxymethylcellulose (CMC); higher = longer survival
Toxic doses and inconclusive results are not listed.

compound: Cc1cc([N+](=O)[O-])ccc1I
T/C: 101 % of control
--
compound: COc1cccc(C2N(Cc3ccc(N(CCCl)CCCl)cc3C)CCCN2Cc2ccc(N(CCCl)CCCl)cc2C)c1O
T/C: 116 % of control
--
compound: COC(=O)/C=C\C=C\C(=O)OC
T/C: 95 % of control
--
compound: NC(=O)NC(=O)C(Cl)c1ccccc1 (stereo unspecified)
T/C: 103 % of control
--
compound: CSCCC1NC(=O)C(/C(C)=N\NC(N)=O)=C1O (stereo unspecified)
T/C: 101 % of control
--
compound: CC(CC#N)c1ccc[nH]1 (stereo unspecified)
T/C: 109 % of control
--
compound: C[Si](C)(C)Cc1ccccc1
T/C: 93 % of control
--
compound: O=C(O)C1C(C(=O)O)C(c2ccccc2)C1c1ccccc1 (stereo unspecified)
T/C: 90 % of control
--
compound: CC[Si](CC)(CC)N1CC1
T/C: 92 % of control
--
compound: COC1C(CO)OC(n2cnc3c(N)ncnc32)C1O (stereo unspecified)
T/C: 102 % of control
--
compound: CC1C2CC3OC(=O)C1C3C2 (stereo unspecified)
T/C: 104 % of control
--
compound: Nc1ccccc1C1OCCO1
T/C: 95 % of control
--
compound: COc1cccc(CCO)c1OC
T/C: 88 % of control
--
compound: COc1ccc2c(c1)CCCCC2=O
T/C: 105 % of control
--
compound: Nc1nc(Cl)nc2c1ncn2C1CC(O)C(CO)O1 (stereo unspecified)
T/C: 109 % of control
--
compound: CC1=C(C(=O)O)C(c2ccccc2)CC(=O)N1 (stereo unspecified)
T/C: 96 % of control

* * *

Test system: L1210 leukemia ip in BDF1 mice, survival T/C
Assay: NCI In Vivo Anticancer Drug Screen. Data for tumor model L1210 Leukemia (intraperitoneal) in B6D2F1 (BDF1) mice
Conditions: endpoint: mean survival time; dose: 200.0 mg/kg/injection; schedule: Q01DX001 (ip); vehicle: carboxymethylcellulose (CMC); higher = longer survival
Inconclusive results and toxic doses are left out.
metric_name: T/C

compound: Cc1ccc(S(=O)(=O)N=P(c2ccccc2)(c2ccccc2)c2ccccc2)cc1
tested_system: L1210 leukemia ip in BDF1 mice, survival T/C
result: 92 % of control

compound: O=C(CN1CCOCC1)Nc1ccc(-c2ccc(NC(=O)CN3CCOCC3)cc2)cc1
tested_system: L1210 leukemia ip in BDF1 mice, survival T/C
result: 97 % of control

compound: Brc1cc(Br)c2c(c1)-c1ccccc1C2
tested_system: L1210 leukemia ip in BDF1 mice, survival T/C
result: 113 % of control

compound: Cc1ccc(NC(=O)NCCCl)cc1
tested_system: L1210 leukemia ip in BDF1 mice, survival T/C
result: 113 % of control

compound: COc1ccc(/C=C(\CCCOC(C)=O)[N+](=O)[O-])cc1OC
tested_system: L1210 leukemia ip in BDF1 mice, survival T/C
result: 101 % of control

compound: Nc1ccccc1C(=O)O
tested_system: L1210 leukemia ip in BDF1 mice, survival T/C
result: 91 % of control

compound: CCc1ccc([N+](=O)[O-])cc1
tested_system: L1210 leukemia ip in BDF1 mice, survival T/C
result: 103 % of control

compound: CCCCCCCCCCCCCCCC(=O)N(CC)CC
tested_system: L1210 leukemia ip in BDF1 mice, survival T/C
result: 96 % of control

compound: C[Si](C)(C)Cc1ccccc1
tested_system: L1210 leukemia ip in BDF1 mice, survival T/C
result: 95 % of control

compound: CC1=C(C(=O)O)C(c2ccccc2)CC(=O)N1 (stereo not given)
tested_system: L1210 leukemia ip in BDF1 mice, survival T/C
result: 98 % of control

* * *

Tested on: L1210 leukemia ip in BDF1 mice, survival T/C
Assay: NCI In Vivo Anticancer Drug Screen. Data for tumor model L1210 Leukemia (intraperitoneal) in B6D2F1 (BDF1) mice
Details: endpoint: mean survival time; dose: 200.0 mg/kg/injection; schedule: Q01DX001 (ip); vehicle: saline; higher = longer survival
Inconclusive results and toxic doses are left out.
metric_name: T/C

compound: CCC(N)CO (stereo not drawn)
result: 106 % of control

compound: COc1ccc(-c2[nH]c3ccccc3c2-c2ccc(OC)cc2)cc1
result: 89 % of control

compound: CC(=O)ON1C(=O)c2ccccc2C1=O
result: 102 % of control

compound: CN(C)c1ccc(C=Nc2cc(Cl)ccc2O)cc1
result: 100 % of control

compound: O=C([O-])c1ccccc1[I+]c1ccc(C2CCCCC2)cc1
result: 105 % of control

compound: S=C(N/N=C1\C=Cc2ccccc2C1)N/N=C1\C=Cc2ccccc2C1
result: 95 % of control

compound: CCCCCCCCCCCCOS(=O)(=O)O
result: 95 % of control

compound: COc1c2occc2c(OC)c2c(=O)cc(/C=C/c3ccc4ccccc4n3)oc12
result: 95 % of control

compound: CN(C)S(=O)(=O)c1ccc(CCc2ccccc2)cc1
result: 95 % of control

compound: O=c1/c(=C\c2ccccc2)sc2n1CCN=2
result: 92 % of control

compound: Cc1ccc(S(=O)(=O)N(c2cc(C)ccc2C)c2ccccc2N)cc1
result: 98 % of control

compound: O=c1cc(CO)[nH]c(=O)[nH]1
result: 98 % of control

compound: COc1ccc(-n2cnc3c(=O)[nH]c(N)nc32)cc1
result: 92 % of control
